# TGT: human HSL (Homo sapiens, UniProt Q05469)
# Construct: generate a full length human HSL ORF with a 3′-His6 tag
# ASSAY METHOD TEXT: Human Hormone-Sensitive Lipase (HSL) enzyme inhibition assay (colorimetric, DMPT substrate)
# CONDITION: human full length HSL-His6, 2,3-dimercapto-1-propanol tributyrate substrate, 37° C. 20 minutes, absorbance at 405 nm; read-out: HSL hum IC50
PROPERTY NAME: IC50

record_smiles=CCOC[C@]1(O)CC[C@@]2(CCN(c3ccc(O[C@@H](C)C(F)(F)F)nc3)C2=O)CC1 obs_value="340 nM"
record_smiles=O=C1N(c2ccc(C3CC3)cc2)CC[C@]12CC[C@@](O)(COCC(F)(F)F)CC2 obs_value="20 nM"
record_smiles=O=C1N(c2ccc(OCC(F)(F)F)cc2)CC[C@]12CC[C@@](O)(COCCC(F)(F)F)CC2 obs_value="40 nM"
record_smiles=C[C@@H](Oc1ccc(N2CC[C@]3(CC[C@@](O)(C(F)(F)F)CC3)C2=O)cn1)C(F)(F)F obs_value="60 nM"
record_smiles=C[C@H](Oc1ccc(N2CC[C@]3(CC[C@@](O)(C4CC4)CC3)C2=O)cn1)C(F)(F)F obs_value="30 nM"
record_smiles=CC(C)OC[C@]1(O)CC[C@]2(CCN(c3ccc(OCC(F)(F)F)cc3)C2=O)CC1 obs_value="10 nM"
record_smiles=CC(C)Oc1ccc(N2CC[C@]3(CC[C@@](O)(c4ccccc4)CC3)C2=O)cc1 obs_value="10 nM"
record_smiles=CC(C)[C@]1(O)CC[C@@]2(CCN(c3ccc(O[C@@H](C)C(F)(F)F)nc3)C2=O)CC1 obs_value="1650 nM"

====

# TGT: human HSL (Homo sapiens, UniProt Q05469)
# Construct: generate a full length human HSL ORF with a 3′-His6 tag
# ASSAY METHOD TEXT: Human Hormone-Sensitive Lipase (HSL) enzyme inhibition assay (colorimetric, DMPT substrate)
# CONDITION: human full length HSL-His6, 2,3-dimercapto-1-propanol tributyrate substrate, 37° C. 20 minutes, absorbance at 405 nm; read-out: HSL hum IC50
pIC50: −log10 of the molar value.
Entries and their measured pIC50 follow.
PROPERTY NAME: pIC50

record_smiles=O=C1N(c2ccc(OC(F)(F)F)cc2)CC[C@]12CC[C@](O)(Cc1ccccc1)CC2 obs_value=6.22
record_smiles=CC(C)c1ccc(N2CC[C@]3(CC[C@@](O)(COCC(F)(F)F)CC3)C2=O)cc1 obs_value=8.00
record_smiles=O=C1N(c2ccc(OCC(F)(F)F)cc2)CC[C@]12CC[C@@H](O)CC2 obs_value=5.64
record_smiles=CCCC[C@]1(O)CC[C@]2(CCN(c3ccc(CCOC)cc3)C2=O)CC1 obs_value=7.70

====

# TGT: human HSL (Homo sapiens)
# Construct: generate a full length human HSL ORF with a 3′-His6 tag
# Sequence (Q05469 1-1076): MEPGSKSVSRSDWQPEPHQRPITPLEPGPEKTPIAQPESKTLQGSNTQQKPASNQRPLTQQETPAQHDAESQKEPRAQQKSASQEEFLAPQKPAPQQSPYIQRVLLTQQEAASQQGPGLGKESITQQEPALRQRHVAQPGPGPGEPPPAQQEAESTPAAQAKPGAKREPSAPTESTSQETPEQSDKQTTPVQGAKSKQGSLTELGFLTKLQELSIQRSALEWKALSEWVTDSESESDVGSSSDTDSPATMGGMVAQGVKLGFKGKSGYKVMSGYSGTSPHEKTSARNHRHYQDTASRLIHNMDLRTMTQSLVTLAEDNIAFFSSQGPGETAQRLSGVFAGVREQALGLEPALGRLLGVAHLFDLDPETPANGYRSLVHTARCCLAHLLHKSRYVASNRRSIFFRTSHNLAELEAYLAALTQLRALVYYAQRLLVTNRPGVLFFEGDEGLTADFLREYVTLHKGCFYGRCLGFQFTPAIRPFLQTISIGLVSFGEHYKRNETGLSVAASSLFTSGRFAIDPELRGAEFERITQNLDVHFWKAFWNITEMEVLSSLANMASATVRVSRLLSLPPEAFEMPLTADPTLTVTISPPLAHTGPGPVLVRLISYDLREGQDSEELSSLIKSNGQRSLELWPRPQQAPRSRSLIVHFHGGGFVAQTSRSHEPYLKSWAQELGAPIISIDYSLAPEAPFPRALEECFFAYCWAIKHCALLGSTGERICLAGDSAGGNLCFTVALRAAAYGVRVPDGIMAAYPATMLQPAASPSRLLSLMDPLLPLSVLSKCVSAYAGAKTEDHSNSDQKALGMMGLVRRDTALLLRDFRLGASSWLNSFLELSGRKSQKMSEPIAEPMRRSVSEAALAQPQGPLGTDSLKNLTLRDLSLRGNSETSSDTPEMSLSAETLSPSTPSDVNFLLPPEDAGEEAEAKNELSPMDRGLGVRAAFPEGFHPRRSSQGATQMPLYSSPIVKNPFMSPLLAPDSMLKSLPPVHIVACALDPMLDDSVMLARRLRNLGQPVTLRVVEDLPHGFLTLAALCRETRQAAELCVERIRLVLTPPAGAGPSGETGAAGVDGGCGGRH
# ASSAY METHOD TEXT: Human Hormone-Sensitive Lipase (HSL) enzyme inhibition assay (colorimetric, DMPT substrate)
# CONDITION: human full length HSL-His6, 2,3-dimercapto-1-propanol tributyrate substrate, 37° C. 20 minutes, absorbance at 405 nm; read-out: HSL hum IC50
Entries and their IC50
PROPERTY NAME: IC50 (nM)

compound=C=C(C)[C@]1(O)CC[C@]2(CCN(c3ccc(CCOC)cc3)C2=O)CC1 obs_value=120
compound=O=c1ccccn1C[C@]1(O)CC[C@@]2(CCN(c3ccc(OCC(F)(F)F)cc3)C2=O)CC1 obs_value=80
compound=O=C1N(c2ccc(OCC(F)(F)F)cc2)CC[C@]12CC[C@@](O)(COc1ccccc1)CC2 obs_value=20
compound=O=C1N(c2ccc(CC(F)(F)F)cc2)CC[C@]12CC[C@@](O)(COCC(F)(F)F)CC2 obs_value=10
compound="CCC[C@]1(O)CC[C@]2(CCN(c3ccc([C@H](O)C(F)(F)F)cc3)C2=O)CC1 [Example 133a]" obs_value=50
compound=O=C1N(c2ccc([C@@H](O)C(F)(F)F)cc2)CC[C@]12CC[C@@](O)(C1CCCC1)CC2 obs_value=10
compound=COC[C@]1(O)CC[C@]2(CCN(c3ccc([C@@H](OC)C(F)(F)F)cc3)C2=O)CC1 obs_value=40
compound=O=C1N(c2ccc(C3CC3)cc2)CC[C@]12CC[C@](O)(COCC(F)(F)F)CC2 obs_value=800
compound="O=C1N(c2ccc(OC(F)(F)F)cc2)CC[C@]12CC[C@@H]([S+]([O-])c1ccccc1)CC2 (some centres unmarked)" obs_value=20
compound=O=C1N(c2ccc(OC(F)(F)F)cc2)CC[C@]12CC[C@@H](O)CC2 obs_value=470
compound=CNC(=O)C[C@]1(O)CC[C@]2(CCN(c3ccc(OCC(F)(F)F)cc3)C2=O)CC1 obs_value=340
compound=CCc1ccc(N2CC[C@]3(CC[C@H](OC(=O)NCc4cccc(F)c4)CC3)C2=O)cc1 obs_value=1110
compound=COC[C@]1(O)CC[C@]2(CCN(c3ccc(O[C@H](C)C(F)(F)F)nc3)C2=O)CC1 obs_value=50
compound=C[C@]1(O)CC[C@]2(CCN(c3ccc(CC(F)(F)F)cc3)C2=O)CC1 obs_value=50
compound=O=C1N(c2ccc(CC(F)(F)F)cc2)CC[C@]12CC[C@](O)(COCC(F)(F)F)CC2 obs_value=190
compound=O=C1N(c2ccc([C@@H](O)C(F)(F)F)cc2)CC[C@]12CC[C@@](O)(CCC(F)(F)F)CC2 obs_value=20
compound=CCCCOC[C@]1(O)CC[C@@]2(CCN(c3ccc(OCC(F)(F)F)cc3)C2=O)CC1 obs_value=270
compound=CCOC[C@]1(O)CC[C@]2(CCN(c3ccc(OC(C)C)nc3)C2=O)CC1 obs_value=40
compound=CCCOC[C@]1(O)CC[C@]2(CCN(c3ccc(OCC(F)(F)F)nc3)C2=O)CC1 obs_value=30
compound=COc1ccc(N2CC[C@]3(CC[C@H](Oc4ccccc4)CC3)C2=O)cc1 obs_value=4240
compound=CC[C@]1(O)CC[C@]2(CCN(c3ccc(OC(C)C)cc3)C2=O)CC1 obs_value=20
compound=CCC[C@]1(O)CC[C@]2(CCN(c3ccc(OCCC(F)(F)F)cc3)C2=O)CC1 obs_value=30
compound="CC(C)[C@]1(O)CC[C@]2(CCN(c3ccc(C(O)C(C)(F)F)cc3)C2=O)CC1 (some centres unmarked)" obs_value=50
compound=O=C1N(c2ccc(OCC(F)(F)F)cc2)CC[C@]12CC[C@@](O)(COCCC1CC1)CC2 obs_value=20
compound=O=C1N(c2ccc(OCC(F)(F)F)cc2)CC[C@]12CC[C@](O)(COCC(F)F)CC2 obs_value=300
compound=CCCCOC[C@]1(O)CC[C@]2(CCN(c3ccc(OCC(F)(F)F)cc3)C2=O)CC1 obs_value=20
compound=C[C@@H](Oc1ccc(N2CC[C@]3(CC[C@@](O)(CS(=O)(=O)C(C)(C)C)CC3)C2=O)cn1)C(F)(F)F obs_value=10
compound=C[C@@H](Oc1ccc(N2CC[C@]3(CC[C@](O)(COCC(F)(F)F)CC3)C2=O)cc1)C(F)(F)F obs_value=360
compound=O=C(NCC1CC1)O[C@H]1CC[C@@]2(CCN(c3ccc(OC(F)(F)F)cc3)C2=O)CC1 obs_value=60
compound=CCC[C@]1(O)CC[C@]2(CCN(c3ccc(O[C@H](C)C(F)(F)F)nc3)C2=O)CC1 obs_value=20
compound=CC(C)[C@]1(O)CC[C@@]2(CCN(c3ccc(OC(F)(F)F)cc3)C2=O)CC1 obs_value=560
compound=CCCS(=O)(=O)C[C@]1(O)CC[C@]2(CCN(c3ccc(OCC(F)(F)F)cc3)C2=O)CC1 obs_value=30
